Data provenance is PubChem BioAssay (EPA / NIEHS).

Read-out: Monokine induced gamma interferon (MIG), CXCL9 (gene 4283)
Assay: BSK_BE3C_MIG: BioMAP Diversity Plus: BE3C Assay for Monokine induced gamma interferon (MIG) Biomarker Activity (AID 2283035)
Conditions: primary human bronchial epithelial cells; actives raise or lower the signal
Calls of active or inactive are those of the source. The calls were made as follows: active = hit-call score of the fitted dose curve at least 0.9, where 1 is the maximum; inactive = score below 0.9.
Mark one answer only. Choices: active, inactive

# example entries with known answers
structure_string=Cc1cccc2ccccc12 label_class=inactive
structure_string=COc1cc(C(=O)NC2CCN(C)CC2)ccc1Nc1ncc2c(n1)N(C1CCCC1)CC(F)(F)C(=O)N2C label_class=active
structure_string=Cc1cc(F)ccc1-c1cc(N2CC[C@@H](O)[C@H]2CO)ncc1N(C)C(=O)C(C)(C)c1cc(C(F)(F)F)cc(C(F)(F)F)c1 label_class=active
structure_string=CCCCCCCCCCCO label_class=inactive

Please turn your attention to the following entry.
Asked: GET /call?item= `CCCOC(=O)c1cc(O)c(O)c(O)c1` returns the recorded outcome of this test.
Given back: inactive

----------
Read-out: Collagen III, COL3A1 (gene 1281)
Test: BSK_hDFCGF_CollagenIII: BioMAP Diversity Plus: hDFCGF Assay for Collagen III Biomarker Activity (AID 2283056)
Conditions: primary human foreskin fibroblasts; actives raise or lower the signal
Experimental: BSK_hDFCGF is a cell-based, multiplexed-readout assay that uses foreskin fibroblast, a human skin primary cell, with measurements taken at 24 hours after chemical dosing in a 96-well plate.BSK_hDFCGF_CollagenIII is an assay component measured in the BSK_hDFCGF assay. It measures Collagen antibody related to regulation of gene expression using ELISA technology.Data from the assay component BSK_hDFCGF_CollagenIII was analyzed into 1 assay endpoint. […]
Activity calls are given as the source filed them. How the source made its calls: active means hit-call score of the fitted dose curve at least 0.9, where 1 is the maximum; inactive means score below 0.9.
Mark one answer only. Choices: Yes (active), No (inactive)

structure_string=CC(C)(C)c1cc(/C=C2\SC(N)=NC2=O)cc(C(C)(C)C)c1O label_class=Yes
structure_string=Clc1ccccc1C(c1ccccc1)(c1ccccc1)n1ccnc1 label_class=Yes
structure_string=CC/C(=C(/CC)c1ccc(O)cc1)c1ccc(O)cc1 label_class=Yes
structure_string=Cc1ncc(CO)c(CO)c1O label_class=No
structure_string=COc1cccc([C@H](O)C2CCN(CCc3ccc(F)cc3)CC2)c1OC label_class=No

Asked: GET /call?item= `CCCOC(=O)c1cc(O)c(O)c(O)c1` returns the recorded outcome of this test.
Given back: No

Asked: GET /call?item= `CC(C)(c1cc(Br)c(O)c(Br)c1)c1cc(Br)c(O)c(Br)c1` returns the recorded outcome of this test.
Given back: Yes

Asked: GET /call?item= `COc1ccc2cc(S(=O)(=O)N[C@H](CC(=O)N[C@H](Cc3ccc(CN4[C@H](C)CCC[C@@H]4C)cc3)C(=O)N(C)C(C)C)c3ccc4c(c3)OCO4)ccc2c1` returns the recorded outcome of this test.
Given back: Yes

Asked: GET /call?item= `CCCCCCCCOc1ccc(C(=O)c2ccccc2)c(O)c1` returns the recorded outcome of this test.
Given back: No

Asked: GET /call?item= `CCCCCCCC[Si](OCC)(OCC)OCC` returns the recorded outcome of this test.
Given back: Yes

----------
Read-out: Cytochrome P450 2C19 (Homo sapiens)
Test: LTEA_HepaRG_CYP2C19: Life Technologies and Expression Analysis (LTEA) Assay for CYP2C19 using HepaRG (AID 2283482)
Conditions: mRNA level, 48 h; actives raise or lower the signal
Active and inactive are the calls of the source. The calls were made as follows: active = hit-call score of the fitted dose curve at least 0.9, where 1 is the maximum; inactive = score below 0.9.
Mark one answer only. Choices: active, inactive

# example entries with known answers
compound=Cc1oc2c(NC(=O)c3c(Cl)cccc3Cl)cccc2c1C(C)(C)O label_class=active
compound=CCCCCCCCCCCO label_class=inactive
compound=CO[C@H]1/C=C/O[C@@]2(C)Oc3c(C)c(O)c4c(O)c(c(/C=N/N5CCN(C)CC5)c(O)c4c3C2=O)NC(=O)/C(C)=C\C=C\[C@H](C)[C@H](O)[C@@H](C)[C@@H](O)[C@@H](C)[C@H](OC(C)=O)[C@@H]1C label_class=active
compound=Cc1c2ccccc2c(C)c2c1ccc1ccccc12 label_class=active
compound=CC(C)(C)c1cc(/C=C2\SC(N)=NC2=O)cc(C(C)(C)C)c1O label_class=active
compound=Clc1cc(Cl)c2c(c1)N=C1CCCCCN1C2 label_class=inactive
compound=CCCCCCCCCCCCO label_class=inactive
compound=CC1(C)NC(=O)N(c2ccc([N+](=O)[O-])c(C(F)(F)F)c2)C1=O label_class=active

Asked: GET /call?item= `CC[C@H](NC(=O)c1cc(F)ccc1NS(=O)(=O)c1cccc2cccnc12)c1ccccc1` returns the recorded outcome of this test.
Given back: active

Asked: GET /call?item= `Cc1occc1C(=O)Nc1ccc(C(=O)N2CCC(F)(F)/C(=C\C(=O)N3CCC(N4CCCCC4)CC3)c3ccccc32)cc1` returns the recorded outcome of this test.
Given back: active

Asked: GET /call?item= `CCCCCCCCCCCC[N+](C)(C)C` returns the recorded outcome of this test.
Given back: active

Asked: GET /call?item= `O=C(O)c1ccccc1C(=O)OCc1ccccc1` returns the recorded outcome of this test.
Given back: inactive

Asked: GET /call?item= `NC(=O)c1nc(-c2cccc(-c3cc(F)ccc3OCC(F)(F)C(F)(F)F)c2)n[nH]1` returns the recorded outcome of this test.
Given back: inactive

Asked: GET /call?item= `O=C1CCC(C2CCCCC2)CC1` returns the recorded outcome of this test.
Given back: inactive

Asked: GET /call?item= `Cc1cn([C@H]2C[C@H](N=[N+]=[N-])[C@@H](CO)O2)c(=O)[nH]c1=O` returns the recorded outcome of this test.
Given back: inactive

Asked: GET /call?item= `O=C(O)Cc1cc(I)c(Oc2ccc(O)c(I)c2)c(I)c1` returns the recorded outcome of this test.
Given back: active

Asked: GET /call?item= `NCc1cccc(C2CCN(C(=O)c3ccc(C#Cc4ccccc4F)o3)CC2)c1` returns the recorded outcome of this test.
Given back: active
